system.name: Cannabinoid receptor 1 (Rattus norvegicus, UniProt P20272)
Sequence (P20272 whole entry): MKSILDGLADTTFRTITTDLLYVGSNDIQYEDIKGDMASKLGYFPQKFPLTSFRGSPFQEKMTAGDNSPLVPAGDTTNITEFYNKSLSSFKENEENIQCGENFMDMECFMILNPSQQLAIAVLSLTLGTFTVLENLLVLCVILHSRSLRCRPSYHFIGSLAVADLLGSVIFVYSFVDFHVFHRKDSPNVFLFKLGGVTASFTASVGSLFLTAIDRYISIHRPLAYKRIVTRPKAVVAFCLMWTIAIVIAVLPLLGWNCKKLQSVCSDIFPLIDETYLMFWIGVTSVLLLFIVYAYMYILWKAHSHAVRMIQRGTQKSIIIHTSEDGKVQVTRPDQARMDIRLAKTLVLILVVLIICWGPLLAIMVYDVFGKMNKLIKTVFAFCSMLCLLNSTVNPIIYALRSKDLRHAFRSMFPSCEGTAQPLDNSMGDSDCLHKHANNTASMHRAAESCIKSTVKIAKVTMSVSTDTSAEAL
The entries below come with measured Ki values attached.
measurement.kind: Ki (nM)

| compound | measurement.kind | numeric.result |
| --- | --- | --- |
| CCCCCCCc1cc(O)c2c(c1)OC(C)(C)[C@@H]1CC=C(C)C[C@@H]21 | Ki | 0.43 |
| CCCCCCC1CCCc2c1cc(O)c1c2OC(C)(C)[C@@H]2CC=C(C)C[C@@H]12 (some centres undefined) | Ki | 542 |
| CCCCCC1CCc2c(cc3c(c2O)[C@@H]2CC(C)=CC[C@H]2C(C)(C)O3)C1 (some centres undefined) | Ki | 402 |
| CCCCCCC1CCCc2c1cc1c(c2O)[C@@H]2CC(C)=CC[C@H]2C(C)(C)O1 (some centres undefined) | Ki | 22.3 |

---

system.name: Cannabinoid receptor 2 (Mus musculus, UniProt P47936)
Sequence (P47936 whole entry): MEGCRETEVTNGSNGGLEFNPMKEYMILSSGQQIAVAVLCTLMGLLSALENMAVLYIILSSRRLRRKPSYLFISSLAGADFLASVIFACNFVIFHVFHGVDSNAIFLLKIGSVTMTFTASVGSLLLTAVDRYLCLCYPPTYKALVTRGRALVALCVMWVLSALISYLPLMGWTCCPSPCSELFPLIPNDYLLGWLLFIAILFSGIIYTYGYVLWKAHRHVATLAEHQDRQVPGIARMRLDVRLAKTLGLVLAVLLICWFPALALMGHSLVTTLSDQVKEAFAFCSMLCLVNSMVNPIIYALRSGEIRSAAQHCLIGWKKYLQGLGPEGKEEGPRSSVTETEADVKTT
protocol.notes: Binding affinity towards Cannabinoid receptor 2 in mouse spleen membranes
Assay type: cell membranes
pKi: −log10 of the molar value.

| compound | pKi |
| --- | --- |
| CCCCCCC1CCCc2c1cc1c(c2O)[C@@H]2CC(C)=CC[C@H]2C(C)(C)O1 (some centres undefined) | 7.23 |
| CCCCCCC1CCCc2c1cc(O)c1c2OC(C)(C)[C@@H]2CC=C(C)C[C@@H]12 (some centres undefined) | 6.34 |
| CCCCCC1CCc2c(cc3c(c2O)[C@@H]2CC(C)=CC[C@H]2C(C)(C)O3)C1 (some centres undefined) | 6.79 |
| CCCCCCCc1cc(O)c2c(c1)OC(C)(C)[C@@H]1CC=C(C)C[C@@H]21 | 9.41 |
